Details: buffer; pH 7.4; 200.0 µM
READOUT KIND: solubility kinetic

Solved cases below.
>>> recorded_result("O=C(Nc1nccs1)c1cncc(Br)c1")
"20.4 µg/mL"
>>> recorded_result("Cc1ccc(OCC(O)CN2CCOCC2)cc1 (configuration not stated)")
"33.4 µg/mL"
>>> recorded_result("O=C(NCC(O)c1ccc([N+](=O)[O-])cc1)C1=COCCO1 (configuration not stated)")
"> 44.1 µg/mL"
>>> recorded_result("CC(CCc1ccccc1)NC(=O)COC(=O)c1cccnc1Cl (configuration not stated)")
"> 52 µg/mL"
>>> recorded_result("Cc1ccc(/C=C/C(=O)O)cc1S(=O)(=O)N1CCCc2ccccc21")
"> 53.6 µg/mL"
>>> recorded_result("CNC(=O)/C(C#N)=C/c1cc(C)n(-c2ccc(N3CCOCC3)cc2)c1C")
"1.5 µg/mL"

[ask] Which solubility kinetic value is on record for O=C(c1c(Cl)cccc1Cl)N1CCN(c2cccc3[nH]ccc23)CC1 ?
[reply] 4.8 µg/mL

[ask] Which solubility kinetic value is on record for COc1ccc(NC(=O)Nc2cnccn2)c(OC)c1 ?
[reply] 3.4 µg/mL

[ask] Which solubility kinetic value is on record for CCOc1ccc(-c2cn3ccccc3n2)cc1 ?
[reply] 18.1 µg/mL

[ask] Which solubility kinetic value is on record for Fc1cccc(NC(=S)N2CCc3ccccc32)c1 ?
[reply] 6.3 µg/mL

[ask] Which solubility kinetic value is on record for COc1ccc(NS(=O)(=O)c2ccc(C(=O)NCC3(N4CCOCC4)CCCCC3)cc2)cc1 ?
[reply] 13.8 µg/mL

[ask] Which solubility kinetic value is on record for CC(NC(=O)c1cnc2ccccc2n1)c1ccccc1 (configuration not stated) ?
[reply] 33.7 µg/mL

* * *

Details: buffer; pH 7.4; 200.0 µM
READOUT KIND: log10(solubility kinetic) (log10 of the value in µg/mL)
Use the decimal logarithm of solubility kinetic (µg/mL).

Solved cases below.
>>> recorded_result("Cc1ccc(NC(=O)C2COc3ccccc3O2)cc1 (centres undefined)")
1.12
>>> recorded_result("CCc1ccc2[nH]c(C(=O)Nc3ccc(C)c(F)c3)cc2c1")
-0.05

[ask] Which log10(solubility kinetic) value is on record for O=C(Cn1cc(C(F)(F)F)ccc1=O)N1CCc2ccccc21 ?
[reply] 1.40

[ask] Which log10(solubility kinetic) value is on record for C(#Cc1ccccc1)CN1CCCCC1.Cl ?
[reply] 1.41

[ask] Which log10(solubility kinetic) value is on record for CC(C)c1cc(C(C)C)c(S(=O)(=O)N2CCNCC2)c(C(C)C)c1 ?
[reply] 1.59

[ask] Which log10(solubility kinetic) value is on record for CCOC(=O)c1cc(NC(=O)c2cccnc2)ccn1 ?
[reply] 1.57

[ask] Which log10(solubility kinetic) value is on record for CNC(=O)c1cccc(NC(=O)C(C)c2ccc3cc(OC)ccc3c2)c1 (centres undefined) ?
[reply] 0.96

[ask] Which log10(solubility kinetic) value is on record for O=C(COC(=O)c1ccccn1)NC(=O)c1ccccc1 ?
[reply] 1.54

[ask] Which log10(solubility kinetic) value is on record for Clc1ccc(CN2CCCCCC2)cc1.O=C(O)C(=O)O ?
[reply] 1.40

[ask] Which log10(solubility kinetic) value is on record for Cc1ccc(C(=O)Nc2ccc3c(c2)OCCO3)cc1S(=O)(=O)N1CCOCC1 ?
[reply] 1.62

[ask] Which log10(solubility kinetic) value is on record for Cl.N=c1sccn1CC(=O)Nc1ccc(Cl)cc1[N+](=O)[O-] ?
[reply] 1.65

* * *

Details: buffer; pH 7.4; 200.0 µM
Where solubility kinetic equals or exceeds 10 µg/mL, the correct label is yes; where it does not, the label is no.

Answered examples (5):
>>> assigned_class("CC(C)C(=O)Nc1oc(-c2ccccc2)cc1C#N")
"yes"
>>> assigned_class("O=C(NCc1c(O)ccc2ccccc12)c1ccccc1")
"no"
>>> assigned_class("COc1ccc(/C=C2/C(=O)ON=C2C)cc1Br")
"yes"
>>> assigned_class("O=C(Nc1cccc(S(=O)(=O)N2CCCCCC2)c1)c1cncc(Br)c1")
"yes"
>>> assigned_class("CC(CN1CCCC1)OC(=O)c1ccc(Cl)cc1.Cl (configuration not stated)")
"yes"

[ask] Answer whether solubility kinetic of O=C(CCCN1C(=O)c2cccc3cccc(c23)C1=O)NCc1ccco1 is greater than or equal to 10 µg/mL.
[reply] no

[ask] Answer whether solubility kinetic of COc1ccccc1C1CCN(Cc2ccc(Cl)cc2Cl)CC1 is greater than or equal to 10 µg/mL.
[reply] no

[ask] Answer whether solubility kinetic of COc1ccc(COC(=O)CNC(=O)C2CCCCC2)cc1F is greater than or equal to 10 µg/mL.
[reply] yes

[ask] Answer whether solubility kinetic of CSc1ccccc1NC(=O)Nc1ccccc1Cl is greater than or equal to 10 µg/mL.
[reply] no

[ask] Answer whether solubility kinetic of O=C(C(=O)N1CCCC1)c1c(-c2ccccc2)[nH]c2ccccc12 is greater than or equal to 10 µg/mL.
[reply] yes

[ask] Answer whether solubility kinetic of COC(=O)c1sccc1NC(=O)Nc1ccc(OC)cc1 is greater than or equal to 10 µg/mL.
[reply] yes

[ask] Answer whether solubility kinetic of Cc1ccc(NC(=O)Cc2c(O)c3ccccc3[nH]c2=O)c(C)c1 is greater than or equal to 10 µg/mL.
[reply] yes

* * *

The following compounds are listed with their measured log10 solubility kinetic values.
Settings: buffer; pH 7.4; 200.0 µM
Use the decimal logarithm of solubility kinetic (µg/mL).

Solved cases below.
>>> recorded_result("CCOc1ccc(N2CC(C(=O)NC3CCSC3=O)CC2=O)cc1 (configuration not stated)")
1.63
>>> recorded_result("Cc1cc(Cl)c2oc(C(=O)N3CCC(O)(c4ccccc4)CC3)c(C)c2c1")
0.34
>>> recorded_result("COc1ccc(C(=O)CSc2nccn2C)cc1")
1.55
>>> recorded_result("COc1ccc(NC(=O)c2ccccc2)c([N+](=O)[O-])c1")
0.32
>>> recorded_result("O=C(NCCCCc1ccccc1)Nc1ccc(F)cc1")
0.36
>>> recorded_result("Cc1ccc(NC(=O)c2ccco2)c(NC(=O)COc2ccccc2)c1")
0.72

// next item, log10 solubility kinetic requested
[ask] Which log10 solubility kinetic value is on record for COc1ccc(OC)c(/C=C/C(=O)OCC(=O)N2C(C)CCCC2C)c1 (configuration not stated) ?
[reply] 1.64

* * *

Details: buffer; pH 7.4; 200.0 µM
READOUT KIND: solubility kinetic

>>> recorded_result("CC(=O)Nc1ccc(OC(=O)N(C)c2ccc(C)cc2)cc1")
"> 0.0448 mg/mL"
>>> recorded_result("COc1cc(NC(=O)c2cc(C)no2)c(OC)cc1Cl")
"0.0018 mg/mL"
>>> recorded_result("C=CCOCCN(C)C1=NS(=O)(=O)c2ccccc21.Cl")
"> 0.0475 mg/mL"
>>> recorded_result("CC1CN(CC(=O)NCc2ccc(F)cc2)CC(C)O1 (stereo unspecified)")
"> 0.0421 mg/mL"
>>> recorded_result("COc1ccc(N2CC(C(=O)N3CCOCC3)CC2=O)cc1 (stereo unspecified)")
"> 0.0457 mg/mL"

[ask] Which solubility kinetic value is on record for CCN(C(=O)COC(=O)CCc1ccccc1)c1ccccc1 ?
[reply] 0.0443 mg/mL

* * *

Conditions: buffer; pH 7.4; 200.0 µM
Where solubility kinetic equals or exceeds 30 µg/mL, the correct label is 1.0; where it does not, the label is 0.0.

Answered examples (3):
>>> assigned_class("CN(CC(=O)Nc1cccc(F)c1)C(=O)CC1CCCCC1")
0.0
>>> assigned_class("CCCn1c(=O)c2[nH]c(C3CCCC3)nc2n(CCC)c1=O")
0.0
>>> assigned_class("Cc1ccc(S(=O)(=O)N2CCOCC2)cc1C(=O)N1CCN(c2ccc(C(F)(F)F)cn2)CC1")
1.0

# evaluate next
[ask] Answer whether solubility kinetic of CCOc1ccc(C(=O)NCc2ccco2)cc1Cl is greater than or equal to 30 µg/mL.
[reply] 1.0

* * *

The following compounds are listed with their measured solubility kinetic values.
Conditions: buffer; pH 7.4; 200.0 µM
// return numeric value only (unit: µg/mL, not printed)

Solved cases below.
>>> recorded_result("CC12CC3CC(C)(C1)CC(C(=O)N1CCCC1)(C3)C2")
3.9
>>> recorded_result("CC1(C)CC(c2nc(-c3ccc([N+](=O)[O-])cc3)cs2)CCO1 (stereo unspecified)")
19.3
>>> recorded_result("O=C(Nc1ccc(N2CCCCC2)cc1)c1ccc([N+](=O)[O-])o1")
6.9
>>> recorded_result("COc1ccccc1CC(=O)Nc1ncc(C)s1")
8.4

// next item, solubility kinetic requested
[ask] Which solubility kinetic value is on record for CCc1ccccc1NC(=O)c1ccccc1N1C(=O)C2C3C=CC(C3)C2C1=O (stereo unspecified) ?
[reply] 43.4
